- Tested on: SR
- run.description: cells
- Assay type: functional
- measurement.setup: Homo sapiens, time 48 hrs
- Description: Growth inhibition of human SR cells incubated for 48 hrs by sulforhodamine B assay
Mark each entry t if its GI50 sits below 2 µM, and f for all others.

Study these solved cases before continuing.
record.smiles	target.system	cat
CC(C)c1ccc(Nc2ccc3c(OCCCN4CCN(C)CC4)cccc3n2)cc1	SR	f
CN1CCN(CCCOc2cccc3nc(Nc4ccc(Cl)c(C(F)(F)F)c4)ccc23)CC1	SR	t
FC(F)(F)c1cc(Nc2ccc3c(OCCCN4CCOCC4)cccc3n2)ccc1Cl	SR	f
CN1CCN(CCCOc2cccc3nc(Nc4ccc(F)c(F)c4)ccc23)CC1	SR	t
CN1CCN(CCCOc2cccc3nc(Nc4cccc(Cl)c4)ccc23)CC1	SR	f

Here's the next entry for you.
(Q) Say whether its GI50 is strictly beneath 2 µM. Entry: "Fc1cc(Nc2ccc3c(OCCCN4CCOCC4)cccc3n2)ccc1Cl"
(A) t

* * *

- Test system: IGROV-1
- run.description: cells
- Type: functional
- measurement.setup: Homo sapiens, time 48 hrs
- Description: Growth inhibition of human IGROV-1 cells incubated for 48 hrs by sulforhodamine B assay
Quick rule for you: GI50 under 2 µM gets Satisfied, anything else gets Not satisfied.

record.smiles	target.system	cat
CC(C)c1ccc(Nc2ccc3c(OCCCN4CCN(C)CC4)cccc3n2)cc1	IGROV-1	Not satisfied
CN1CCN(CCCOc2cccc3nc(Nc4cccc(Cl)c4)ccc23)CC1	IGROV-1	Not satisfied
CN1CCN(CCCOc2cccc3nc(Nc4ccc(F)c(F)c4)ccc23)CC1	IGROV-1	Not satisfied

(Q) Does the reported GI50 of "Fc1cc(Nc2ccc3c(OCCCN4CCOCC4)cccc3n2)ccc1Cl" stay below 2 µM?
(A) Not satisfied

(Q) Would you kindly repeat that for "Clc1cc(Cl)cc(Nc2ccc3c(OCCCN4CCOCC4)cccc3n2)c1" ?
(A) Not satisfied

* * *

- System: Panel prostate (Carcinoma cell lines)
- run.description: cells
- Format: functional
- measurement.setup: Homo sapiens, time 48 hrs
- Description: Growth inhibition of human Panel prostate (Carcinoma cell lines) incubated for 48 hrs by sulforhodamine B assay
Classify: met when GI50 is strictly less than 3000 nM; not met when GI50 is not.

Solved cases (6 shown):
record.smiles	cat
Fc1cc(Nc2ccc3c(OCCCN4CCOCC4)cccc3n2)ccc1Cl	met
CN1CCN(CCCOc2cccc3nc(Nc4cc(Cl)cc(Cl)c4)ccc23)CC1	met
FC(F)(F)c1cc(Nc2ccc3c(OCCCN4CCOCC4)cccc3n2)ccc1Cl	met
Clc1cc(Cl)cc(Nc2ccc3c(OCCCN4CCOCC4)cccc3n2)c1	met
CN1CCN(CCCOc2cccc3nc(Nc4cccc(Cl)c4)ccc23)CC1	met
CN1CCN(CCCOc2cccc3nc(Nc4ccc(Cl)c(F)c4)ccc23)CC1	met

(Q) Record "CN1CCN(CCCOc2cccc3nc(Nc4ccc(F)c(F)c4)ccc23)CC1" : is its GI50 strictly below 3000 nM?
(A) not met

(Q) Same question, "CN1CCN(CCCOc2cccc3nc(Nc4ccc(Cl)c(C(F)(F)F)c4)ccc23)CC1" this time
(A) met

(Q) Try this compound too: "CC(C)c1ccc(Nc2ccc3c(OCCCN4CCN(C)CC4)cccc3n2)cc1"
(A) not met

* * *

Each entry below carries its reported GI50.
- System: Panel colon (Carcinoma cell lines)
- run.description: cells
- Type: functional
- measurement.setup: Homo sapiens, time 48 hrs
- Description: Growth inhibition of human Panel colon (Carcinoma cell lines) incubated for 48 hrs by sulforhodamine B assay
The reply should contain only the number, in µM.

record.smiles	target.system	measure.name	units	measured.value
FC(F)(F)c1cc(Nc2ccc3c(OCCCN4CCOCC4)cccc3n2)ccc1Cl	Panel colon (Carcinoma cell lines)	GI50	µM	1.85

(Q) For the compound shown here, "Fc1cc(Nc2ccc3c(OCCCN4CCOCC4)cccc3n2)ccc1Cl" , give the reported GI50.
(A) 1.97

(Q) # iterate: "CN1CCN(CCCOc2cccc3nc(Nc4ccc(Cl)c(C(F)(F)F)c4)ccc23)CC1"
(A) 1.58

(Q) Can you check "CN1CCN(CCCOc2cccc3nc(Nc4cccc(Cl)c4)ccc23)CC1" next?
(A) 1.64

(Q) Then this compound: "CN1CCN(CCCOc2cccc3nc(Nc4ccc(F)c(F)c4)ccc23)CC1"
(A) 2.11

(Q) Try the compound "CC(C)c1ccc(Nc2ccc3c(OCCCN4CCN(C)CC4)cccc3n2)cc1"
(A) 4.85

* * *

- target.system: High affinity nerve growth factor receptor (Homo sapiens, UniProt P04629)
- Sequence (P04629 whole entry): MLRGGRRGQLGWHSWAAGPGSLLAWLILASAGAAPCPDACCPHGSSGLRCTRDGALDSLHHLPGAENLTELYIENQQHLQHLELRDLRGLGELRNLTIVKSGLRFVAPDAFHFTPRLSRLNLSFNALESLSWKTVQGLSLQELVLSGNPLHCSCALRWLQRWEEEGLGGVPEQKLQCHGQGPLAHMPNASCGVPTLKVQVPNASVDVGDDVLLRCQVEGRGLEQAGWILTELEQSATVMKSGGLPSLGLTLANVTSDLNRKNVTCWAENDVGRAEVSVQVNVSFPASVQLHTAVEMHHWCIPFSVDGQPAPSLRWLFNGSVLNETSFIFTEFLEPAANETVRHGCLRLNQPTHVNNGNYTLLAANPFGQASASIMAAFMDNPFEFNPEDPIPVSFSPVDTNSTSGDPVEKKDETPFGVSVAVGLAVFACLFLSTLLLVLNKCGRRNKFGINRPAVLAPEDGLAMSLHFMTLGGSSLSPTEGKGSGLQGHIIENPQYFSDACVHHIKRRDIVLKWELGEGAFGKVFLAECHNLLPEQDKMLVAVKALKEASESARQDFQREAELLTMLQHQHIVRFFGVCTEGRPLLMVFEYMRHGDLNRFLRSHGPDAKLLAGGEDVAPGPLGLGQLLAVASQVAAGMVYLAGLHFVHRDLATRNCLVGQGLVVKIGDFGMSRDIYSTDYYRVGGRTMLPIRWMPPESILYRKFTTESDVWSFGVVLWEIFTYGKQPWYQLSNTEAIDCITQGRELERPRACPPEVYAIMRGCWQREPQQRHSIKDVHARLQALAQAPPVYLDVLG
- run.description: Inhibition of recombinant N-terminal His6-tagged human TrkA (440 to end residues) expressed in baculovirus infected Sf21 insect cells
measure.name: IC50 (nM)
Just the number in nM, nothing appended.

(Q) Find the measured IC50: item "CN1CCN(CCCOc2cccc3nc(Nc4ccc(Cl)c(C(F)(F)F)c4)ccc23)CC1" , target or system High affinity nerve growth factor receptor (Homo sapiens, UniProt P04629).
(A) 2520

* * *

The entries below come with measured GI50 values attached.
- Tested on: UACC-257
- run.description: cells
- Assay type: functional
- measurement.setup: Homo sapiens, time 48 hrs
- Description: Growth inhibition of human UACC-257 cells incubated for 48 hrs by sulforhodamine B assay
Dear colleague, please return just the value in µM, with no unit written.

Consider the worked cases shown below.
record.smiles	units	GI50
CN1CCN(CCCOc2cccc3nc(Nc4cc(Cl)cc(Cl)c4)ccc23)CC1	µM	1.97
CN1CCN(CCCOc2cccc3nc(Nc4ccc(Cl)c(C(F)(F)F)c4)ccc23)CC1	µM	1.72
CN1CCN(CCCOc2cccc3nc(Nc4cccc(Cl)c4)ccc23)CC1	µM	1.81
CN1CCN(CCCOc2cccc3nc(Nc4ccc(Cl)c(F)c4)ccc23)CC1	µM	2.04

# input for lookup
(Q) Give recorded GI50 with UACC-257 for the following compound: "Fc1cc(Nc2ccc3c(OCCCN4CCOCC4)cccc3n2)ccc1Cl"
(A) 2.18

* * *

- Test system: Panel colon (Carcinoma cell lines)
- run.description: cells
- Format: functional
- measurement.setup: Homo sapiens, time 48 hrs
measure.name: TGI (µM)
Return type: number; implicit unit µM.

record.smiles	measured.value
CN1CCN(CCCOc2cccc3nc(Nc4ccc(F)c(F)c4)ccc23)CC1	5.9
CN1CCN(CCCOc2cccc3nc(Nc4cc(Cl)cc(Cl)c4)ccc23)CC1	3.19
CN1CCN(CCCOc2cccc3nc(Nc4ccc(Cl)c(F)c4)ccc23)CC1	3.17
CN1CCN(CCCOc2cccc3nc(Nc4ccc(Cl)c(C(F)(F)F)c4)ccc23)CC1	3.17

Now examine the next entry.
(Q) Fill in the blank: the reported TGI of "CN1CCN(CCCOc2cccc3nc(Nc4cccc(Cl)c4)ccc23)CC1" is ____.
(A) 3.1

* * *

- run.description: cells
- Assay type: functional
- measurement.setup: Homo sapiens, Non-small cell lung cancer cell line; time 48 hrs
- Description: Growth inhibition of human Non-small cell lung cancer cell line incubated for 48 hrs by sulforhodamine B assay
Decision: GI50 beneath 3 µM gives 1 (yes); GI50 meeting or exceeding 3 µM gives 0 (no).

As a guide, the following entries are already answered.
record.smiles	cat
CN1CCN(CCCOc2cccc3nc(Nc4ccc(F)c(F)c4)ccc23)CC1	0 (no)
Fc1cc(Nc2ccc3c(OCCCN4CCOCC4)cccc3n2)ccc1Cl	1 (yes)
CN1CCN(CCCOc2cccc3nc(Nc4ccc(Cl)c(F)c4)ccc23)CC1	1 (yes)

(Q) Bench note: check whether "FC(F)(F)c1cc(Nc2ccc3c(OCCCN4CCOCC4)cccc3n2)ccc1Cl" shows GI50 below 3 µM
(A) 1 (yes)

(Q) Follow-up entry: "CC(C)c1ccc(Nc2ccc3c(OCCCN4CCN(C)CC4)cccc3n2)cc1"
(A) 0 (no)

(Q) Now this one: "Clc1cc(Cl)cc(Nc2ccc3c(OCCCN4CCOCC4)cccc3n2)c1"
(A) 1 (yes)

(Q) "CN1CCN(CCCOc2cccc3nc(Nc4cc(Cl)cc(Cl)c4)ccc23)CC1" , same question.
(A) 1 (yes)

(Q) Try this compound too: "CN1CCN(CCCOc2cccc3nc(Nc4ccc(Cl)c(C(F)(F)F)c4)ccc23)CC1"
(A) 1 (yes)

(Q) Moving on to the next compound: "CN1CCN(CCCOc2cccc3nc(Nc4cccc(Cl)c4)ccc23)CC1"
(A) 0 (no)

* * *

- System: HOP-62
- run.description: cells
- Format: functional
- measurement.setup: Homo sapiens, time 48 hrs
- Description: Growth inhibition of human HOP-62 cells incubated for 48 hrs by sulforhodamine B assay
measure.name: GI50 (nM)
Answer in nM, number only, no unit symbol.

record.smiles	GI50 / nM
CN1CCN(CCCOc2cccc3nc(Nc4ccc(Cl)c(F)c4)ccc23)CC1	1450
CN1CCN(CCCOc2cccc3nc(Nc4cc(Cl)cc(Cl)c4)ccc23)CC1	1370
Fc1cc(Nc2ccc3c(OCCCN4CCOCC4)cccc3n2)ccc1Cl	1710

Pending molecule:
(Q) Give its GI50 value. Item: "CN1CCN(CCCOc2cccc3nc(Nc4ccc(F)c(F)c4)ccc23)CC1"
(A) 1250

* * *

The reader will find reported TGI values listed item by item below.
- Test system: Panel NCI-60 (60 carcinoma cell lines)
- run.description: cells
- Assay type: functional
- measurement.setup: Homo sapiens, time 48 hrs
- Description: Growth inhibition of human Panel NCI-60 (60 carcinoma cell lines) incubated for 48 hrs by sulforhodamine B assay
The reply should contain only the number, in µM.

Solved entries:
record.smiles	TGI [µM]
CN1CCN(CCCOc2cccc3nc(Nc4ccc(Cl)c(C(F)(F)F)c4)ccc23)CC1	3.47
CN1CCN(CCCOc2cccc3nc(Nc4cccc(Cl)c4)ccc23)CC1	4.17
CN1CCN(CCCOc2cccc3nc(Nc4ccc(F)c(F)c4)ccc23)CC1	6.76

(Q) Report TGI for "CN1CCN(CCCOc2cccc3nc(Nc4ccc(Cl)c(F)c4)ccc23)CC1" please.
(A) 3.89

(Q) Next compound: "CN1CCN(CCCOc2cccc3nc(Nc4cc(Cl)cc(Cl)c4)ccc23)CC1"
(A) 3.72
